# Study Conditions: mouse, in vivo, sc, 50 mg/kg
e = 2'-O-(2-methoxyethyl) (MOE); d = 2'-deoxy (DNA)
This listing pairs substances with measured AST.

Substance | AST [IU/L]
ISIS 413481: 5-10-5 MOE gapmer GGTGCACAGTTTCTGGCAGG (sugars from the 5' end e5 d10 e5, backbone and methylation of C not given here) | 143
ISIS 416864: MOE gapmer, nucleobases 1275 to 1318 of SEQ ID NO: 1 (Table 8) (antisense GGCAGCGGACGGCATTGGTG; MOE gapmer, wing and gap sizes not given here) | 67
ISIS 416867: MOE gapmer, nucleobases 1275 to 1318 of SEQ ID NO: 1 (Table 8) (antisense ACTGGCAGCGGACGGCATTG; MOE gapmer, wing and gap sizes not given here) | 82
